conditions: acidic group
Observed property: pKa
// response body must contain only the number

// known answers, use as guide
Compound	pKa
Oc1ccc2cnc3ccccc3c2c1	8.43
O=c1[nH]c(=O)c2ncn([C@H]3O[C@@H](CO)[C@H](O)[C@@H]3O)c2[nH]1	5.72
Oc1cc(-c2ccccc2)n[nH]1	11.4
O=[PH](O)C([NH2+]Cc1cc[nH+]cc1)c1ccccc1O (stereo not drawn)	2.35
COc1ncc2[nH]cnc2n1	9.2
O=C(O)CCCc1cccs1	4.54
Cc1ccc(O)c(CN(C)C)c1	11.2
O=C([O-])c1cccc(O)c1	9.81
Oc1cc[n+](OCc2ccccc2)cc1	2.58
O=P([O-])([O-])C([NH2+]Cc1ccccn1)c1ccccc1O (stereo not drawn)	10.2

Quick check: pKa of OC(O)c1ccncc1 ? 12.2

Give the measured pKa of CO/C([O-])=N/c1ncnc2nc[nH]c12 . 12.1

pKa for Oc1c(Cl)cccc1Cl ? 6.8

Requested field: pKa. Item: CC(C)=C=CC(C)(C)C(=O)O 4.7

Which value of pKa has been reported for O=C(O)c1ccc(Cl)s1 in the records? 3.41

Recorded pKa of CCN(CC)Cc1cc(F)ccc1O , please. 10.8

Could you tell me which pKa is on file for COc1ccc(C(=S)Nc2ccc(Br)cc2)cc1 ? 10.9

I'd like to know its pKa. The compound in question is COP(=O)(O)NS(=O)(=O)c1ccccc1 1.05

Recorded pKa of Cc1cc([N+](=O)[O-])ccc1O , please. 7.1

Query (compound): S=c1[nH]c2cc3c(cc2[nH]1)CCCC3 ; field requested: pKa 10.4

What value of measured pKa is listed for O=C(c1ccccc1)c1cccc(O)c1 ? 9

What value of measured pKa is listed for CSC1=NC(C)(C)C(O)=N1 ? 9.48

// query pKa value for entry CC(=O)c1ccc(Br)cc1 18
